Read-out: Urokinase-type plasminogen activator receptor (uPAR), PLAUR (gene 5329)
experimentNotes: BSK_4H_uPAR: BioMAP Diversity Plus: 4H Assay for Urokinase-type plasminogen activator receptor (uPAR) Biomarker Activity (AID 2283030)
settings: primary human endothelial cells (HUVEC); actives raise or lower the signal
Activity calls are given as the source filed them. The calls were made as follows: active = hit-call score of the fitted dose curve at least 0.9, where 1 is the maximum; inactive = score below 0.9.
API: response.call in 1.0 (active), 0.0 (inactive)

O=C(O)c1nc(Cl)ccc1Cl: 0.0
CC(C)C1(C)N=C(c2nc3ccccc3cc2C(=O)O)NC1=O (configuration not stated): 0.0
CC1COC(Cn2cncn2)(c2ccc(Oc3ccc(Cl)cc3)cc2Cl)O1 (configuration not stated): 1.0
CCOC(=O)CC(SP(=S)(OC)OC)C(=O)OCC (configuration not stated): 0.0
CCNc1nc(Cl)nc(NC(C)C)n1: 0.0

Short answer needed: outcome of this test for CCCCC(CC)COC(=O)c1ccccc1C(=O)OCC(CC)CCCC (configuration not stated) ? 0.0

Test call for this molecule, please: `COC(=O)c1ccccc1C(=O)OC` 0.0

Recorded test outcome, item `CCc1nn(C)c(C(=O)NCc2ccc(C(C)(C)C)cc2)c1Cl` 1.0

Query: recorded result category for `CCOc1cc(Oc2ccc(C(F)(F)F)cc2Cl)ccc1[N+](=O)[O-]` in this test 0.0

---

Read-out: Glutathione S-Transferase (GSTA2), GSTA2 (gene 2939)
experimentNotes: LTEA_HepaRG_GSTA2: Life Technologies and Expression Analysis (LTEA) Assay for Glutathione S-Transferase (GSTA2) using HepaRG (AID 2283497)
settings: mRNA level, 48 h; actives raise or lower the signal
Experimental: LTEA_HepaRG is a cell based, multiplexed-readout assay that uses HepaRG, a human liver cell line, with measurements taken at 48 hours after chemical dosing on a 96-well plate.LTEA_HepaRG_GSTA2 is one of 102 assay component(s) measured in the LTEA HepaRG cell culture assay. It is a marker of Oxidative Stress.Data from the assay component LTEA_HepaRG_GSTA2 was analyzed into 1 endpoint. […]
Calls of active or inactive are those of the source. The calls were made as follows: active = hit-call score of the fitted dose curve at least 0.9, where 1 is the maximum; inactive = score below 0.9.
Respond with a class label; see active, inactive

Record excerpt, results attached:
C=CC1(C)OC(=O)N(c2cc(Cl)cc(Cl)c2)C1=O (configuration not stated): inactive
CON(C)C(=O)Nc1ccc(Cl)c(Cl)c1: active
CC1COC(Cn2cncn2)(c2ccc(Oc3ccc(Cl)cc3)cc2Cl)O1 (configuration not stated): active
COc1ccc(C(c2ccc(OC)cc2)C(Cl)(Cl)Cl)cc1: active

Recorded test outcome, item `CCOc1cc(Oc2ccc(C(F)(F)F)cc2Cl)ccc1[N+](=O)[O-]` active

Query: recorded result category for CCOC(=O)C(Cl)Cc1cc(-n2nc(C)n(C(F)F)c2=O)c(F)cc1Cl (configuration not stated) in this test inactive

---

subjectOfTest: Heat shock factor protein 1 (Homo sapiens)
experimentNotes: ATG_HSE_CIS: Attagene CIS-FACTORIAL HepG2 Assay for human Heat Shock Transcription Factor 1 (HSE) (AID 2282953)
settings: HepG2 HSE cis-reporter, Attagene RNA transcription; actives raise or lower the signal
Active and inactive are the calls of the source. The calls were made as follows: active = hit-call score of the fitted dose curve at least 0.9, where 1 is the maximum; inactive = score below 0.9.
Classes to choose from: active, inactive

Check out these entries, answers already filled in.
CC(C)C1(C)N=C(c2nc3ccccc3cc2C(=O)O)NC1=O (stereo unspecified): inactive
CCCCOC(=O)c1ccccc1C(=O)OCCCC: inactive
CCOP(=S)(OCC)SCn1c(=O)oc2cc(Cl)ccc21: active
CCOC(=O)CC(SP(=S)(OC)OC)C(=O)OCC (stereo unspecified): inactive
CC(C)Oc1cc(-n2nc(C(C)(C)C)oc2=O)c(Cl)cc1Cl: active

# fetch the recorded call for `CCCN(CCC)c1c([N+](=O)[O-])cc(S(N)(=O)=O)cc1[N+](=O)[O-]` here inactive
